Tested on: Shigella dysenteriae
Experiment: Antibacterial activity against Shigella dysenteriae assessed as zone of growth inhibition at 0.2 mg/ml after 18 to 24 hrs by Kirby-Bauer agar diffusion method
Assay type: functional
Conditions: read-out: DIZ
Quick rule: zone of inhibition at 200 µg/mL of at least 20 mm means 1, below that means -1.

[[record]]
smilesentry = "CC(C)c1ccc(-c2nc3ccccc3s2)cc1"
category = -1

[[record]]
smilesentry = "CN(C)c1ccc(Cn2c(-c3ccc(N(C)C)cc3)nc3ccccc32)cc1"
category = -1

[[record]]
smilesentry = "Brc1ccc(Cn2c(-c3ccc(Br)cc3)nc3ccccc32)cc1"
category = -1

[[record]]
smilesentry = "FC(F)(F)c1ccc(Cn2c(-c3ccc(C(F)(F)F)cc3)nc3ccccc32)cc1"
category = -1

[[record]]
smilesentry = "Cc1ccc(Cn2c(-c3ccc(C)cc3)nc3ccccc32)cc1"
category = -1


Exam item: decide whether the reported zone of inhibition at 200 µg/mL for CC(C)(C)c1ccc(Cn2c(-c3ccc(C(C)(C)C)cc3)nc3ccccc32)cc1 is at least 20 mm. -1

Exam item: decide whether the reported zone of inhibition at 200 µg/mL for COc1cc(-c2nc3ccccc3s2)cc(OC)c1OC is at least 20 mm. 1

Exam item: decide whether the reported zone of inhibition at 200 µg/mL for FC(F)(F)Oc1ccc(Cn2c(-c3ccc(OC(F)(F)F)cc3)nc3ccccc32)cc1 is at least 20 mm. -1

Exam item: decide whether the reported zone of inhibition at 200 µg/mL for O=[N+]([O-])c1ccc(-c2nc3ccccc3s2)cc1 is at least 20 mm. -1

Exam item: decide whether the reported zone of inhibition at 200 µg/mL for c1ccc(Cn2c(-c3ccccc3)nc3ccccc32)cc1 is at least 20 mm. 1

Exam item: decide whether the reported zone of inhibition at 200 µg/mL for CCCCCCCn1c(CCCCCC)nc2ccccc21 is at least 20 mm. 1

###

Tested on: Shigella dysenteriae
Experiment: Antibacterial activity against Shigella dysenteriae assessed as zone of growth inhibition at 0.2 mg/ml after 18 to 24 hrs by Kirby-Bauer agar diffusion method
Format: functional
Settings: read-out: DIZ
This section presents compounds with their documented zone of inhibition at 200 µg/mL values.
All answers are understood in mm, so give the number only.

// below: answered compounds
[[record]]
smilesentry = "c1coc(Cn2c(-c3ccco3)nc3ccccc32)c1"
readoutname = "zone of inhibition at 200 µg/mL"
readoutvalue = 12

[[record]]
smilesentry = "CCc1ccccc1-c1nc2ccccc2s1"
readoutname = "zone of inhibition at 200 µg/mL"
readoutvalue = 35

[[record]]
smilesentry = "CCOc1ccc(-c2nc3ccccc3s2)cc1"
readoutname = "zone of inhibition at 200 µg/mL"
readoutvalue = 16

[[record]]
smilesentry = "Clc1ccc(Cn2c(-c3ccc(Cl)c(Cl)c3)nc3ccccc32)cc1Cl"
readoutname = "zone of inhibition at 200 µg/mL"
readoutvalue = 11

[[record]]
smilesentry = "CCOc1ccc(-c2nc3ccccc3s2)cc1OC"
readoutname = "zone of inhibition at 200 µg/mL"
readoutvalue = 15


Next item in the queue.
May I ask what zone of inhibition at 200 µg/mL has been recorded for Oc1ccc(Cn2c(-c3ccc(O)cc3)nc3ccccc32)cc1 ? 11
